The reported measurements were obtained from ChEMBL document CHEMBL1938351.

# assayed.target: Neuropeptides B/W receptor type 1 (Mus musculus, UniProt P49681)
# Sequence (P49681 whole entry): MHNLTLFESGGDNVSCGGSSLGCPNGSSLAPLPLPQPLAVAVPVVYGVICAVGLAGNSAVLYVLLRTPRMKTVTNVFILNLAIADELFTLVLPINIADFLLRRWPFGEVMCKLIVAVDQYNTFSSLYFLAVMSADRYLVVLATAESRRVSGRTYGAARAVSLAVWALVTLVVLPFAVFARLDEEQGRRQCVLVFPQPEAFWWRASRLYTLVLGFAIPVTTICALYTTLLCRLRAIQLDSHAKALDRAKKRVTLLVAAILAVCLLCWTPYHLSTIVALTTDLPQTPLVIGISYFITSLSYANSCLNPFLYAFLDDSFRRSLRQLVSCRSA
# assay: Antagonist activity at mouse NPBWR1 expressed in CHO-K1 cells assessed as inhibition of hNPW23 and forskolin-stimulated cAMP production after 1 hr by TR-FRET assay
# Assay type: functional, cell-based
measured.attribute: IC50 (nM)
# number only, unit nM dropped from output

Kindly note: Neuropeptides B/W receptor type 1 (Mus musculus, UniProt P49681), "COc1ccc(C2(N[C@@H]3CC[C@H](C(=O)N4CCN(c5nc6ccccc6[nH]5)CC4)[C@@H](c4ccsc4)C3)CCC2)cc1" , IC50 value reported: 3

Kindly note: Neuropeptides B/W receptor type 1 (Mus musculus, UniProt P49681), "COc1ccc([C@@H](C)N[C@@H]2CC[C@H](C(=O)N3CCN(c4cc(Cl)ccn4)CC3)[C@@H](c3ccsc3)C2)cc1" , IC50 value reported: 2140

Kindly note: Neuropeptides B/W receptor type 1 (Mus musculus, UniProt P49681), "C[C@@H](N[C@@H]1CC[C@H](C(=O)N2CCN(c3ccc(Cl)cn3)CC2)[C@@H](c2ccsc2)C1)c1ccccc1" , IC50 value reported: 981

Kindly note: Neuropeptides B/W receptor type 1 (Mus musculus, UniProt P49681), "COc1cccc(C2(N[C@@H]3CC[C@H](C(=O)N4CCN(c5ccc(Cl)cn5)CC4)[C@@H](c4ccsc4)C3)CCC2)c1" , IC50 value reported: 1020

Kindly note: Neuropeptides B/W receptor type 1 (Mus musculus, UniProt P49681), "COc1ccc([C@@H](C)N[C@@H]2CC[C@H](C(=O)N3CCN(c4ccc(Cl)cc4)CC3)[C@@H](c3ccsc3)C2)cc1" , IC50 value reported: 3860

Kindly note: Neuropeptides B/W receptor type 1 (Mus musculus, UniProt P49681), "O=C([C@H]1CC[C@@H](NC2(c3ccc(Br)cc3)CCC2)C[C@@H]1c1ccsc1)N1CCN(c2ccc(Cl)cn2)CC1" , IC50 value reported: 601

Kindly note: Neuropeptides B/W receptor type 1 (Mus musculus, UniProt P49681), "O=C([C@H]1CC[C@@H](NC2(c3cccc(Br)c3)CCC2)C[C@@H]1c1ccsc1)N1CCN(c2ccc(Cl)cn2)CC1" , IC50 value reported: 972

Kindly note: Neuropeptides B/W receptor type 1 (Mus musculus, UniProt P49681), "COc1ccc([C@@H](C)N[C@@H]2CC[C@H](C(=O)N3CCN(c4ccc(C)cn4)CC3)[C@@H](c3ccsc3)C2)cc1" , IC50 value reported: 400

Kindly note: Neuropeptides B/W receptor type 1 (Mus musculus, UniProt P49681), "COc1ccc(C2(N[C@@H]3CC[C@H](C(=O)N4CCN(c5ccc(Cl)cn5)CC4)[C@@H](c4ccsc4)C3)CC2)cc1" , IC50 value reported: 523

Kindly note: Neuropeptides B/W receptor type 1 (Mus musculus, UniProt P49681), "COc1ccc(C2(N[C@@H]3CC[C@H](C(=O)N4CCN(c5nc6cc(F)ccc6o5)CC4)[C@@H](c4ccsc4)C3)CCC2)cc1" , IC50 value reported: 0.86

Kindly note: Neuropeptides B/W receptor type 1 (Mus musculus, UniProt P49681), "COc1ccc([C@@H](C)N[C@@H]2CC[C@H](C(=O)N3CCN(c4nc5ccccc5[nH]4)CC3)[C@@H](c3ccsc3)C2)cc1" , IC50 value reported: 20

Kindly note: Neuropeptides B/W receptor type 1 (Mus musculus, UniProt P49681), "COc1ccc(C2(N[C@@H]3CC[C@H](C(=O)N4CCN(c5nc6ccc(F)cc6o5)CC4)[C@@H](c4ccsc4)C3)CCC2)cc1" , IC50 value reported: 1.3

Kindly note: Neuropeptides B/W receptor type 1 (Mus musculus, UniProt P49681), "CC(C)(N[C@@H]1CC[C@H](C(=O)N2CCN(c3ccc(Cl)cn3)CC2)[C@@H](c2ccsc2)C1)c1ccc([N+](=O)[O-])cc1" , IC50 value reported: 1100
